# maps each entry to its IC50
- Tested on: IL-4 induced STAT6 phosphorylation in BMDMs from JAK3 Cys905Ser knockin mice
- EXPERIMENTAL PROTOCOL: IL-4 induced STAT6 phosphorylation in JAK3 Cys905Ser knockin BMDMs (immunoblot)
- Format: cell-based, mouse
- ASSAY CONTEXT: Mus musculus, BMDM, 0.5 h; 10 ng/ml IL-4 30 min, pSTAT6 Tyr641 immunoblot, two independent experiments

- COMPOUND: "C=CC(=O)N1C[C@H](Nc2ncnc3[nH]ccc23)CC[C@@H]1C [PF-06651600, reference compound]"
  READOUT UNIT: "nM"
  COMPARISON OPERATOR: ">"
  IC50: 10000
- COMPOUND: "C=CC(=O)Nc1cccc(CNc2nc(Nc3ccc(N4CCOCC4)cc3)ncc2Cl)c1"
  READOUT UNIT: "nM"
  COMPARISON OPERATOR: "="
  IC50: 540
- COMPOUND: "C=CC(=O)Nc1cccc(CNc2nc(Nc3ccc(N4CCN(C)CC4)cc3OC)ncc2Cl)c1"
  READOUT UNIT: "nM"
  COMPARISON OPERATOR: ">"
  IC50: 10000
- COMPOUND: "CN(C)C(=O)/C(C#N)=C/c1ccc(-c2nc3cnc4[nH]ccc4c3n2C2CCCCC2)o1 [FM-381, reference compound]"
  READOUT UNIT: "nM"
  COMPARISON OPERATOR: "="
  IC50: 890
